biological target: TESK1 (human) (UniProt Q15569); experiment: KINOMEscan competition binding; details: compound 10.0 µM
Sequence (Q15569 whole entry, looked up): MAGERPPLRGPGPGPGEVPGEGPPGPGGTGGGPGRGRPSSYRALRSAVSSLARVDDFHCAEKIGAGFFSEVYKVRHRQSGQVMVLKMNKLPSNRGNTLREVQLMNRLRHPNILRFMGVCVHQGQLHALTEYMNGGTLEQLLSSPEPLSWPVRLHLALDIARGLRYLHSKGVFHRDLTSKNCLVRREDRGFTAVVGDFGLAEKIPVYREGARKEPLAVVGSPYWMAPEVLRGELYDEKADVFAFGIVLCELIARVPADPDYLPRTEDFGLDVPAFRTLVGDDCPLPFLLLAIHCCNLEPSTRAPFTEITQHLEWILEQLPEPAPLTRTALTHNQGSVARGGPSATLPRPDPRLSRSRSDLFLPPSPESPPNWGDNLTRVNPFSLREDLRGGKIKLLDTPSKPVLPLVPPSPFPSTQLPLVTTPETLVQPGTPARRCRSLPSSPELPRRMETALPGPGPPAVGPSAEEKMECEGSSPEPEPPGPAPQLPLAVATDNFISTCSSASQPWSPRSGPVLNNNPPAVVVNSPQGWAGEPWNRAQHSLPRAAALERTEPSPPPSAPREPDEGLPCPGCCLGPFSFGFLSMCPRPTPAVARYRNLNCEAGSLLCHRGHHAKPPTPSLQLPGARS
Measurement Kind: kinase still bound, per cent of control (%)
Numbers only, in %.

Use these answered entries as a reference point.
COc1cc(N2CCN(C)CC2)ccc1Nc1ncc2c(n1)N(C)c1sccc1C(=O)N2C ... 90
COc1cc(N2CCN(C)CC2)ccc1Nc1ncc2c(n1)Nc1ccccc1NC2=O ... 100
O=C1NC(=O)/C(=C/c2c[nH]c(=O)c(-c3ccc(N4CCNCC4)nc3)c2)S1 ... 100
CN1CCN(c2ccc(C(=O)Nc3ncc4c(n3)N(C)c3ccccc3C(=O)N4C)cc2)CC1 ... 91

Let us move to another entry and its kinase still bound, per cent of control.
Prompt line: Item: CN1C(=O)c2ccccc2N(C)c2nc(Nc3ccc(N4CCC(O)CC4)cc3)ncc21 Test system: TESK1 (human) (UniProt Q15569) Read-out: kinase still bound, per cent of control Value: ?
Response line: 97
